Test system: Mus musculus
Experiment: Effect on 8-OH-DPAT-induced hypothermia in Swiss albino mouse assessed as change in rectal body temperature at 20 mg/kg, ip pretreated with compound for 45 mins followed by 8-OH-DPAT challenge and measured after 30 min by thermometer (reference value: -1.36 to -1.12 degreeC)
Assay type: functional, organism-based
Conditions: time 75.0 min
Would you please tag the item label 1 when its deltaT is -2 °C or above, and label 0 when it is below?

O=C(NC1CC2CCC(C1)N2Cc1ccccc1Cl)c1ccc2ccccc2c1 (stereo not drawn) : label 0
O=C(NC1CC2CCC(C1)N2Cc1ccc(F)cc1)c1ccc2ccccc2c1 (stereo not drawn) : label 1
O=C(NC1CC2CCC(C1)N2Cc1cccc(Br)c1)c1ccc2ccccc2c1 (stereo not drawn) : label 1
COc1ccccc1CN1C2CCC1CC(NC(=O)c1ccc3ccccc3c1)C2 (stereo not drawn) : label 1
COc1cccc(CN2C3CCC2CC(NC(=O)c2ccc4ccccc4c2)C3)c1 (stereo not drawn) : label 1
O=C(NC1CC2CCC(C1)N2Cc1cccc(F)c1)c1ccc2ccccc2c1 (stereo not drawn) : label 1
O=C(NC1CC2CCC(C1)N2Cc1cccc(Cl)c1)c1ccc2ccccc2c1 (stereo not drawn) : label 0
Cc1cccc(CN2C3CCC2CC(NC(=O)c2ccc4ccccc4c2)C3)c1 (stereo not drawn) : label 0

====

Assay: Half life in pooled human liver microsomes assessed as parent compound remaining at 2.5 uM measured up to 45 mins in presence of NADPH by LC-MS analysis
Assay type: ADME, Microsome
Measured quantity: half-life at 2.5 µM (min)

COc1cccc(CN2C3CCC2CC(NC(=O)c2ccc4ccccc4c2)C3)c1 (stereo not drawn) : 42.9
Cc1cccc(CN2C3CCC2CC(NC(=O)c2ccc4ccccc4c2)C3)c1 (stereo not drawn) : 30
O=C(NC1CC2CCC(C1)N2Cc1ccccc1Cl)c1ccc2ccccc2c1 (stereo not drawn) : 33
COc1ccccc1CN1C2CCC1CC(NC(=O)c1ccc3ccccc3c1)C2 (stereo not drawn) : 41.3

====

Tested on: Mus musculus
Experiment: Effect on 8-OH-DPAT-induced hypothermia in Swiss albino mouse assessed as change in rectal body temperature at 10 mg/kg, ip pretreated with compound for 45 mins followed by 8-OH-DPAT challenge and measured after 45 min by thermometer (reference value: -1.04 to -0.78 degreeC)
Type: functional, organism-based
Conditions: time 90.0 min
The label is Yes for deltaT below -0.9 °C and No for deltaT equal to or exceeding -0.9 °C.

COc1cccc(CN2C3CCC2CC(NC(=O)c2ccc4ccccc4c2)C3)c1 (stereo not drawn) : No
COc1ccccc1CN1C2CCC1CC(NC(=O)c1ccc3ccccc3c1)C2 (stereo not drawn) : Yes
O=C(NC1CC2CCC(C1)N2Cc1ccccc1Cl)c1ccc2ccccc2c1 (stereo not drawn) : No
O=C(NC1CC2CCC(C1)N2Cc1cccc(F)c1)c1ccc2ccccc2c1 (stereo not drawn) : Yes
Cc1cccc(CN2C3CCC2CC(NC(=O)c2ccc4ccccc4c2)C3)c1 (stereo not drawn) : No
O=C(NC1CC2CCC(C1)N2Cc1cccc(Cl)c1)c1ccc2ccccc2c1 (stereo not drawn) : No
O=C(NC1CC2CCC(C1)N2Cc1cccc(Br)c1)c1ccc2ccccc2c1 (stereo not drawn) : Yes

====

# deltaT listing for each entry below
Test system: Mus musculus
Test: Effect on 8-OH-DPAT-induced hypothermia in Swiss albino mouse assessed as change in rectal body temperature at 20 mg/kg, ip pretreated with compound for 45 mins followed by 8-OH-DPAT challenge and measured after 45 min by thermometer (reference value: -1.04 to -0.78 degreeC)
Type: functional, organism-based
Conditions: time 90.0 min
Measured quantity: deltaT

COc1cccc(CN2C3CCC2CC(NC(=O)c2ccc4ccccc4c2)C3)c1 (stereo not drawn) : -1.33 °C
O=C(NC1CC2CCC(C1)N2Cc1cccc(Br)c1)c1ccc2ccccc2c1 (stereo not drawn) : -1.25 °C
COc1ccccc1CN1C2CCC1CC(NC(=O)c1ccc3ccccc3c1)C2 (stereo not drawn) : -0.92 °C
O=C(NC1CC2CCC(C1)N2Cc1cccc(Cl)c1)c1ccc2ccccc2c1 (stereo not drawn) : -2.22 °C
O=C(NC1CC2CCC(C1)N2Cc1ccccc1Cl)c1ccc2ccccc2c1 (stereo not drawn) : -2.18 °C
O=C(NC1CC2CCC(C1)N2Cc1cccc(F)c1)c1ccc2ccccc2c1 (stereo not drawn) : -1.53 °C
Cc1cccc(CN2C3CCC2CC(NC(=O)c2ccc4ccccc4c2)C3)c1 (stereo not drawn) : -2.08 °C
O=C(NC1CC2CCC(C1)N2Cc1ccc(F)cc1)c1ccc2ccccc2c1 (stereo not drawn) : -1.43 °C
